experimental_protocol: Liver microsomal stability, human liver microsomes
Type: in vitro ADME
condition_details: 1 μM compound, NADPH, read-out: t1/2 (min) in HLM
property_name: half-life at 1 μM

# molecule, half-life at 1 μM
rows = [
    ("CCn1cc(C(F)(F)F)nc1-c1ccc(Cn2ncc3cnc(-c4c(OC)ncnc4C4CC4)nc32)cn1", "> 25 min"),
    ("CCn1cc(C(F)(F)F)nc1-c1ccc(Cn2nc(C)c3cnc(-c4c(OC)ncnc4C4CC4)nc32)cc1", "> 25 min"),
    ("[2H]C([2H])([2H])Oc1ncnc(C2CC2)c1-c1ncc2cnn(Cc3ccc(-c4nc(C(F)(F)F)cn4CC)cc3)c2n1", "> 25 min"),
    ("COc1ncnc(C2CC2(C)C)c1-c1ncc2cnn(Cc3ccc(-c4nc(C(F)(F)F)cn4C(C)C)cc3)c2n1 (stereo not shown)", "< 25 min"),
    ("COc1ncnc(C2(C)CC2)c1-c1ncc2cnn(Cc3ccc(-c4nc(C(F)(F)F)cn4C(C)C)cc3)c2n1", "> 25 min"),
    ("COc1ncnc(C2CC2)c1-c1ncc2cnn(Cc3ccc(-c4nc(C(F)(F)F)c(OC)n4C)cc3)c2n1", "> 25 min"),
]

Below: the item to evaluate.
Exercise: Please list half-life at 1 μM recorded for the molecule COc1cnn(C2CC2)c1-c1ncc2cnn(Cc3ccc(-c4nc(C(F)(F)F)cn4C)cc3)c2n1
Solution: < 25 min

###

experimental_protocol: Liver microsomal stability, human liver microsomes
Assay type: in vitro ADME
condition_details: 1 μM compound, NADPH, read-out: t1/2 (min) in HLM
property_name: half-life at 1 μM

# molecular_string, half-life at 1 μM
records = [
    ("COc1ncnc(C2CC2)c1-c1ncc2c(OC)nn([C@@H](C)c3ccc(-c4nc(C(F)(F)F)cn4CCF)cc3)c2n1", "> 25 min"),
]

Exercise: Please look at this compound and report its half-life at 1 μM: CCn1cc(C(F)(F)F)nc1-c1ccc(Cn2nc(OC)c3cnc(-c4c(OC)ncnc4C4CC4)nc32)cc1
Solution: > 25 min

###

Measured solubility at 24 h, listed per entry.
experimental_protocol: ADME solubility determination at pH 2.0 and pH 7.4
Type: physicochemical
condition_details: aqueous buffer, thermodynamic from solid; PBS pH 7.4, shaken at 25° C. for 24 hours, LC-MS/MS; read-out: Solubility at pH 7.4

# molecular_string, property_name, reported
records = [
    ("COc1ncnc(C2CC2)c1-c1ncc2cnn(Cc3ccc(-c4nc(C(F)(F)F)sc4C)cc3)c2n1", "solubility at 24 h", "< 10 µM"),
]

Exercise: Tell us which solubility at 24 h value is on record for COc1ncnc(C2CC2)c1-c1ncc2cnn([C@@H](C)c3ccc(-c4nc(C(F)(F)F)cn4CCF)cc3)c2n1
Solution: < 10 µM

Exercise: Give the reported solubility at 24 h for this molecule. COc1ncnc(C2(C)CC2)c1-c1ncc2cnn(Cc3ccc(-n4nc(C(F)(F)F)cc4C)cc3)c2n1
Solution: < 10 µM

Exercise: State its solubility at 24 h: COc1ncnc(C2CC2)c1-c1ncc2cnn(Cc3ccc(-c4nc(C(F)(F)F)cn4C(C)C)cc3)c2n1
Solution: < 10 µM

###

experimental_protocol: Liver microsomal stability, human liver microsomes
Format: in vitro ADME
condition_details: 1 μM compound, NADPH, read-out: t1/2 (min) in HLM
Each record here notes measured half-life at 1 μM.

Some entries whose results are on file:
# compound, half-life at 1 μM
rows = [
    ("CCS(=O)(=O)c1ccccc1-c1ncc2cnn(Cc3ccc(-c4nc(C(F)(F)F)cn4C)cc3)c2n1", "> 25 min"),
    ("CCn1cc(C(F)(F)F)nc1-c1ccc(Cn2nc(Br)c3cnc(-c4c(OC)ncnc4C4CC4)nc32)cc1", "> 25 min"),
    ("COc1ncnc(C2CC2)c1-c1ncc2cnn(Cc3ccc(-c4nc(C(F)(F)F)cn4C(C)CF)cc3)c2n1 (centres unmarked)", "> 25 min"),
    ("Cc1cc(C(F)F)nn1-c1ccc(Cn2ncc3cnc(-c4cccnc4C(C)C)nc32)cc1", "< 25 min"),
    ("COc1ncnc(C2CC2)c1-c1ncc2cnn(Cc3ccc(-c4nc(C(F)(F)F)nn4C(C)C)cc3)c2n1", "> 25 min"),
]

Now take the following compound into account.
Exercise: State its half-life at 1 μM for this compound: COc1ncnc(C2CC2)c1-c1ncc2cnn(Cc3ccc(-c4nc(C(F)(F)F)cn4C4CCOC4)cc3)c2n1 (centres unmarked)
Solution: < 25 min

###

experimental_protocol: Liver microsomal stability, rat liver microsomes
Format: in vitro ADME
condition_details: 1 μM compound, NADPH, read-out: t1/2 (min) in RLM
Documented half-life at 1 μM across a set of compounds

Check out these entries, answers already filled in.
# molecular_string, property_name, reported
rows = [
    ("COc1ncnc(C2CC2)c1-c1ncc2ncn(Cc3ccc(-c4nc(C(F)(F)F)cn4C)cc3)c2n1", "half-life at 1 μM", "< 25 min"),
    ("COc1ncnc(C2CC2)c1-c1ncc2cnn([C@H]3CCc4cc(-c5nc(C(F)(F)F)cn5C(C)C)ccc43)c2n1", "half-life at 1 μM", "> 25 min"),
    ("COc1ncnc(C2(C)CC2)c1-c1ncc2cnn(Cc3ccc(-n4nc(C(F)(F)F)cc4C)cc3)c2n1", "half-life at 1 μM", "> 25 min"),
    ("[2H]C([2H])([2H])C([2H])([2H])n1cc(C(F)(F)F)nc1-c1ccc(Cn2ncc3cnc(-c4c(OC)ncnc4C4CC4)nc32)cc1", "half-life at 1 μM", "> 25 min"),
]

Exercise: Retrieve half-life at 1 μM measured for CCn1cc(C(F)(F)F)nc1-c1ccc([C@@H](C)n2ncc3cnc(-c4c(OC)ncnc4OC)nc32)cc1 and print it.
Solution: > 25 min

Exercise: Using the record for CC(C)c1ncccc1-c1ncc2cnn(Cc3ccc(-c4nc(C(F)(F)F)cn4C)cc3)c2n1 , state its measured half-life at 1 μM.
Solution: < 25 min

Exercise: Give half-life at 1 μM for the following compound: [2H]C([2H])([2H])Oc1ncnc(C2CC2)c1-c1ncc2cnn(Cc3ccc(-c4nc(C(F)(F)F)cn4CC)cc3)c2n1
Solution: > 25 min

###

half-life at 1 μM reference
experimental_protocol: Liver microsomal stability, human liver microsomes
Type: in vitro ADME
condition_details: 1 μM compound, NADPH, read-out: t1/2 (min) in HLM

Solved entries:
# molecular_string, half-life at 1 μM
rows = [
    ("COc1ncnc(C2CC2)c1-c1ncc2cnn([C@@H](C)c3ccc(-c4nc(C(F)(F)F)cn4CCF)cc3)c2n1", "> 25 min"),
    ("COc1ncnc(C2CC2)c1-c1ncc2nc(C)n(Cc3ccc(-c4nc(C(F)(F)F)cn4C)cc3)c2n1", "< 25 min"),
    ("Cc1ncnc(C(C)C)c1-c1ncc2cnn(Cc3ccc(-n4nc(C(F)(F)F)cc4C)cc3)c2n1", "< 25 min"),
    ("COc1ncnc(C(C)(C)C)c1-c1ncc2cnn(Cc3ccc(-c4nc(C(F)(F)F)cn4C)cc3)c2n1", "< 25 min"),
]

Exercise: Entry CCn1c(-c2ccc(Cn3ncc4cnc(-c5c(OC)ncnc5C5CC5)nc43)cc2)nc(C(F)(F)F)c1OC needs its half-life at 1 μM filled in; supply it.
Solution: < 25 min

Exercise: # return recorded half-life at 1 μM for input COc1ncnc(C2CC2)c1-c1ncc2cnn(Cc3ccc(-c4nc(C(F)(F)F)c[nH]4)cc3)c2n1
Solution: > 25 min

Exercise: Read off the recorded half-life at 1 μM for CCn1cc(C(F)(F)F)nc1-c1ccc(Cn2nc(SCc3ccc(OC)cc3)c3cnc(-c4c(OC)ncnc4C4CC4)nc32)cc1
Solution: < 25 min

###

experimental_protocol: Liver microsomal stability, rat liver microsomes
Type: in vitro ADME
condition_details: 1 μM compound, NADPH, read-out: t1/2 (min) in RLM
property_name: half-life at 1 μM

Exercise: # return recorded half-life at 1 μM for entry COc1ncnc(C2CC2)c1-c1ncc2nc(C)n(Cc3ccc(-n4nc(C(F)(F)F)cc4C)cc3)c2n1 [Example 211]
Solution: > 25 min

Exercise: Provide one value: measured half-life at 1 μM of CCn1cc(C(F)(F)F)nc1-c1ccc(C(C)n2ncc3cnc(-c4c(OC)ncnc4C(C)C)nc32)cc1F (stereo not drawn) [Example 116]
Solution: < 25 min

Exercise: Indicate its recorded half-life at 1 μM; the molecule in question is COc1cc(Cn2ncc3cnc(-c4c(OC)ncnc4C4CC4)nc32)ccc1-c1nc(C(F)(F)F)cn1CCF [Example 129]
Solution: > 25 min

Exercise: Kindly indicate its recorded half-life at 1 μM. Item: COc1ncnc(C2CC2)c1-c1ncc2cnn(Cc3ccc(-c4nc(C(F)(F)F)cn4C)cc3)c2n1 [Example 12]
Solution: > 25 min
